Molecular target: T1, human mesothelin (MSLN) on cells (human, UniProt Q13421 296-598)
T1 construct: whole, on cells; One molecule is used for human MSLN on transfected CHO cells and on HeLa cells; the cell line is named under assay; also called huMSLN
T1 sequence (Q13421 other isoform, or with tags, fused parts or gaps limits assumed): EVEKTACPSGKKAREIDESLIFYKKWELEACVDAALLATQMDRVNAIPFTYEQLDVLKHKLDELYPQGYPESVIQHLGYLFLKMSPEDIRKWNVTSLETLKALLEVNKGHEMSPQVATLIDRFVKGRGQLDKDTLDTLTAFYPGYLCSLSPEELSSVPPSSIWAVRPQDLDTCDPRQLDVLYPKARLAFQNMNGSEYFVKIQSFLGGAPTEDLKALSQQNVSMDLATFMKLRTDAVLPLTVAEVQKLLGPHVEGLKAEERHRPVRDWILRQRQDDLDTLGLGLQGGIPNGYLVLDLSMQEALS
Assay: flow cytometry, supernatant diluted 1:5, CHO cells expressing human MSLN
Text: Pelleted CHO cells were resuspended in flow buffer (1× phosphate buffered saline (PBS), 1% bovine serum albumin (BSA), and 0.1% NaN₃) at 1.25×10⁶ cells/mL. […] After two wash steps, cells were resuspended in flow buffer and analyzed using a Guava easyCyte 8HT system. Table E1 summarizes the target binding activity of the anti-MSLN single domain antibodies as fold over background mean fluorescence intensity (MFI) signal.
Short version: fold over background mean fluorescence intensity (MFI) at least 400 fold over background is Y, less is N.

binder	assigned_category
anti-MSLN single domain antibody clone 394966 (VHH, Human VH single domain; tested as antibody-containing supernatant) VHH: EVQLLESGGGLGQPGGSLRLSCAASGFTFSSYPMSWVRQAPGKGLEWVSAISGSGDSTYYADSVKGRFTISRDNSKNTLYLQMNSLRAEDTAVYYCAKPPSYYDFLSDPDYWGQGTLVTVSS	N
anti-MSLN single domain antibody clone 394985 (VHH, Human VH single domain; tested as antibody-containing supernatant) VHH: EVQLLESGGGLVQPGGSLRLSCAASGFTFSSYAMSWVRQAPGKGLEWVSAITGSGDSTYYADSVKGRFTISRDNSKNTLFLQMSSLRGEDTAVYYCAKPPSYYDFLSDPDYWGQGTLVTVSS	N
anti-MSLN single domain antibody clone 394947 (VHH, Human VH single domain; tested as antibody-containing supernatant) VHH: EVQLLESGGGLIQPGGSLRLSCAASGFSFSSYAMSWVRQAPGKGLEWVSSISSSGDSTYYADSVKGRFTISRDNSKNTLYLQMKSLRAEDTAVYYCAKPPSYYDFLSDPDYWGQGTLVTVSS	N
anti-MSLN single domain antibody clone 394979 (VHH, Human VH single domain; tested as antibody-containing supernatant) VHH: EVQLLESGGGVVQPGRSLRLSCAASGFTFSSYDMHWVRQAPGKGLEWVAVISYDGSKKYSADSVKGRFTISRDNSKNTLYLQMNSLRAEDTAVYYCAKPPSYYDFLSDPDYWGQGTLVTVSS	N
anti-MSLN single domain antibody clone 394940 (VHH, Human VH single domain ('heavy chain antibody variable domain')) VHH: EVQLLESGGGLVQPGGSLRLSCAASGFSFSSYAMSWVRQAPGKGLEWVSSISSSGDSTYYADSVKGRFTISRDNSKNTLYLQMNSLRAEDTAVYYCARPPSYYDFLSDPDYWGQGTLVTVSS	Y
anti-MSLN single domain antibody clone 394972 (VHH, Human VH single domain; tested as antibody-containing supernatant) VHH: EVQLLESGGGLVQPGGSLRLSCAASGFTFSSYAMSWVRQAPGKGLEWVSAISSSGDSTYYADSVKGRFTISRDNSKNTLYLQMNSLRAEDTAVYYCAKPPSYYDFLSDPDYWGQGTLVTVSS	Y
